- TARGET: human TLR7 (wild type sequence) (Homo sapiens)
- Construct: expressed in transfected cells; host or cells: HEK293
- Sequence (Q9NYK1 27-1049): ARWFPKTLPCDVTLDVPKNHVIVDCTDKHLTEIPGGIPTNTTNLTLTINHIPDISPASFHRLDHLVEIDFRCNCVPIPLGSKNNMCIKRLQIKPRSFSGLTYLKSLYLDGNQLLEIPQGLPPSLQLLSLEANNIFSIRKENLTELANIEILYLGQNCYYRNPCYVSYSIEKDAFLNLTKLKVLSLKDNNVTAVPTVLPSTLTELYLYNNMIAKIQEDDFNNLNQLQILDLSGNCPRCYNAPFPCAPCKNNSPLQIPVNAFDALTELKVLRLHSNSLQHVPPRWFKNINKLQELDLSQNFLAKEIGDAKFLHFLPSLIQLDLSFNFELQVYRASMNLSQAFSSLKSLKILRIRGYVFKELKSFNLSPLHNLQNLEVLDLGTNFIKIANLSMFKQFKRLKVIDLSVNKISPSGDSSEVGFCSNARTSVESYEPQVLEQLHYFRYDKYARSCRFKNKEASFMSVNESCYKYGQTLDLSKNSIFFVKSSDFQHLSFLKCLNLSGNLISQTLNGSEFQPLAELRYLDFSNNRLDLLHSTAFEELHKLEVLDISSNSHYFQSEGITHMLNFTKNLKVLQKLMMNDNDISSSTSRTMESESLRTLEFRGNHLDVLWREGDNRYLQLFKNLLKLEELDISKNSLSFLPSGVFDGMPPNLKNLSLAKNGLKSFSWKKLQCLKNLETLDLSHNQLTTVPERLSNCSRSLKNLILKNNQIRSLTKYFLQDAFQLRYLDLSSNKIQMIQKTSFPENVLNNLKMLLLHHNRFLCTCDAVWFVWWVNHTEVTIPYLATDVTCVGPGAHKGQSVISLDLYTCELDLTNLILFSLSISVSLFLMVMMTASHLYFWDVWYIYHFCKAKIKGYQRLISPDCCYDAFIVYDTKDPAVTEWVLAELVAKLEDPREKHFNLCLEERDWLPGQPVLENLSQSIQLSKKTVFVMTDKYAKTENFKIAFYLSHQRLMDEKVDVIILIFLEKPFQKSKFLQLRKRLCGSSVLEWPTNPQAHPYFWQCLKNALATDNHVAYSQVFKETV
- TEST DESCRIPTION: TLR7 cellular NFκB-luc reporter assay, wild type TLR7
- Type: cell-based
- Design: unit not given here
- DETAILS: lowest effective concentration, wild type TLR7 (compounds 74 onward)
We use 0.4 as the dividing line for TLR 7 wt LEC: on or above the line is fulfilled, below is not fulfilled.

Examples from the recorded data:
{"columns": ["COMPOUND", "QUALITATIVE LABEL"],
 "data": [
  ["CCCCNc1nc(N)ncc1OCC1CCCO1 (stereo not drawn) [Compound 100]", "fulfilled"],
  ["CCCCNc1nc(N)ncc1OCc1cc(C(F)(F)F)n(C)n1 [Compound 181]", "not fulfilled"],
  ["CCCC[C@@H](CCO)Nc1nc(N)ncc1OCCCc1ccccc1 [Compound 113]", "fulfilled"],
  ["CCCCNc1nc(N)ncc1OCc1cccc2cccnc12 [Compound 184]", "not fulfilled"],
  ["CCC[C@@H](CCO)Nc1nc(N)ncc1OCc1nccc(OC)c1OC [Compound 87]", "not fulfilled"],
  ["CCCCNc1nc(N)ncc1OCCOc1ccc(C#N)cc1 [Compound 126]", "fulfilled"],
  ["CCCCNc1nc(N)ncc1OCCCc1ccc(OC)c(OC)c1OC [Compound 164]", "fulfilled"],
  ["CCCCNc1nc(N)ncc1OCc1ccc(F)cc1 [Compound 95]", "fulfilled"],
  ["CCCCNc1nc(N)ncc1OCc1ccc(C(=O)OC)o1 [Compound 120]", "fulfilled"],
  ["CCCCNc1nc(N)ncc1OCc1nn(C)c2cc(OC)c(OC)cc12 [Compound 183]", "not fulfilled"]
]}

Task item: Does the compound CCCCNc1nc(N)ncc1OCc1nccc2ccccc12 [Compound 123] have recorded TLR 7 wt LEC that is 0.4 or more?
Reply: not fulfilled

Task item: Does the compound CCCCNc1nc(N)ncc1OCc1cccc2c1OCCCO2 [Compound 138] have recorded TLR 7 wt LEC that is 0.4 or more?
Reply: fulfilled

Task item: Does the compound CCCCNc1nc(N)ncc1OCCCc1ccc2c(c1)OCO2 [Compound 151] have recorded TLR 7 wt LEC that is 0.4 or more?
Reply: fulfilled

Task item: Does the compound CCCCNc1nc(N)ncc1OCCCc1ccccc1C(F)(F)F [Compound 162] have recorded TLR 7 wt LEC that is 0.4 or more?
Reply: fulfilled

Task item: Does the compound CCCCNc1nc(N)ncc1OCc1nc(-c2ccccc2)no1 [Compound 155] have recorded TLR 7 wt LEC that is 0.4 or more?
Reply: fulfilled

These measurements were taken from patent US11541050B2.
